test: p53 small molecule agonists, cell-based qHTS assay (AID 1963582); conditions: HCT-116 p53RE-bla reporter, beta-lactamase FRET ratio, 16 h; series mostly up to 66 µM; note: % is set by controls: 0 for no effect and ±100 for the full control effect
Inconclusive results are not listed. Calls of active or inactive are those of the source. Calls come from the whole dose curve; as a rule, active = well fitted activation curve with a large enough effect in the signal ratio in the repeat runs (not every such curve was filed as active); inconclusive = weak or mixed curves; inactive = flat fitted curve, though single readings scatter; the % refers to the signal ratio.
assay.metric: activation

Solved entries (count: 4):
| compound | assay.metric | measured.result |
| --- | --- | --- |
| O=C(O)CCSCCC(=O)O | activation | inactive |
| CCOc1ccccc1O[C@H](c1ccccc1)[C@H]1CNCCO1 | activation | inactive |
| O=S(O)(O)=S | activation | -3.63% [at 5.99 µM] (inactive) |
| CN1CCN(C2=Nc3ccccc3Sc3ccc(Cl)cc32)CC1 | activation | inactive |

Okay, here is my list. What is activation for each of these?
1. CCC(CC)(CC(=O)Nc1cccc(/C=C/c2nc(C3CCC3)cs2)c1)C(=O)O
2. CCN(CC)CCOCCOC(=O)C1(c2ccccc2)CCCC1
3. O=C1CCCCCCCCCCC(=O)OCCO1
4. CC(=O)OCC(=O)[C@@]1(OC(C)=O)[C@@H](C)C[C@H]2[C@@H]3C[C@H](F)C4=CC(=O)C=C[C@]4(C)[C@@]3(F)[C@@H](O)C[C@@]21C
5. CCCCNc1c(C(=O)OCC)c(C)nc2c1cnn2CC
6. CC1=C(CC=O)C(C)(C)CCC1

1. inactive
2. inactive
3. inactive
4. inactive
5. inactive
6. inactive

---

target: Muscarinic acetylcholine receptor M1 (Homo sapiens); assay: Cholinergic receptor muscarinic 1 (CHRM1) small molecule antagonists, cell-based qHTS assay (AID 1963588); settings: CHRM1-CHO antagonist mode, calcium flux fluorescence; series mostly up to 61.5 µM; note: % is set by controls: 0 for no effect and ±100 for the full control effect; nearly all actives have a fitted effect of over 40% in size
Records with an inconclusive call do not appear. Calls of active or inactive are those of the source. The call rests on the fitted dose curve.
A correct response names exactly one class from Yes for active, No for inactive

| compound | discrete.label |
| --- | --- |
| O=C1O[C@@H]2[C@@H](O)[C@H](O)O[C@@H]2[C@H]1O | No |

Test call, this compound: CC(C)(C)C(=O)OCOC(=O)[C@@H]1N2C(=O)[C@@H](NC(=O)[C@H](N)c3ccccc3)[C@H]2SC1(C)C No

Test call, this compound: Cc1ccc(C)c(N)c1 No

Test call, this compound: O=C(O)c1cc(Cl)cc(Cl)c1 No

Test call, this compound: CCCCCCCCCCC(=O)O No

Test call, this compound: Cc1cc(O)ccc1N No

Test call, this compound: Oc1ccc(Nc2ccccc2)cc1 No

---

test: Nuclear factor erythroid 2-related factor 2/antioxidant responsive element (Nrf2/ARE) small molecule agonists: qHTS cell viability counter screen in human keratinocytes (AID 1919968); conditions: KeratinoSens HaCaT ARE cells viability, CellTiter-Fluor, 24 h; series mostly up to 92.4 µM; note: nearly all actives have a fitted effect of over 55% in size
Records with an inconclusive call do not appear. The source made the active and inactive calls. Calls follow the shape of the dose curve; as a rule, active = well fitted cell-killing curve with a large enough effect in the repeat runs; inconclusive = weak or mixed curves, or effect the other way; inactive = flat fitted curve, though single readings scatter.
A correct response names exactly one class from active, inactive

| compound | discrete.label |
| --- | --- |
| C#CC(C)N(C)C(=O)Nc1ccc(Cl)cc1 (configuration not stated) | inactive |

Turning now to a further compound:
Test call, this compound: OCCN1C[C@H](O)[C@@H](O)[C@H](O)[C@H]1CO inactive

---

assay: Nuclear factor erythroid 2-related factor 2/antioxidant responsive element (Nrf2/ARE) small molecule agonists: qHTS cell viability counter screen in human keratinocytes (AID 1919968); conditions: KeratinoSens HaCaT ARE cells viability, CellTiter-Fluor, 24 h; series mostly up to 92.4 µM; note: nearly all actives have a fitted effect of over 55% in size
Records with an inconclusive call do not appear. Activity calls are given as the source filed them. The call rests on the fitted dose curve; in most records, active means well fitted cell-killing curve with a large enough effect in the repeat runs; inconclusive means weak or mixed curves, or effect the other way; inactive means flat fitted curve, though single readings scatter.
A correct response names exactly one class from Y for active, N for inactive

Test call, this compound: CC(C)(Oc1ccc(Cl)cc1)C(=O)OCCCOC(=O)C(C)(C)Oc1ccc(Cl)cc1 N

Test call, this compound: CN(C)CCN1C(=O)c2ccccc2N(C)c2ccccc21 N

Test call, this compound: C1CCN(CN2CCCCC2)CC1 N

Test call, this compound: Nc1ccc2cc(S(=O)(=O)O)cc(O)c2c1 N

Test call, this compound: O=C(O)CCCc1ccccc1 N

Test call, this compound: COC(=O)c1ccccc1Cl N

Test call, this compound: Cc1ccc2c(Cl)cc(Cl)c(O)c2n1 N

Test call, this compound: C=C(C)C(=O)OCCOCC N

Test call, this compound: COc1cc(S(=O)(=O)O)c(C)cc1N=Nc1c(O)ccc2cc(S(=O)(=O)O)ccc12 Y

Test call, this compound: COc1ccc([C@@H]2Sc3ccccc3N(CCN(C)C)C(=O)[C@@H]2OC(C)=O)cc1 N

Test call, this compound: Cc1occc1C(=O)Nc1ccc(C(=O)N2CCC(F)(F)/C(=C\C(=O)N3CCC(N4CCCCC4)CC3)c3ccccc32)cc1 N

Test call, this compound: CC1=CC[C@H](C(C)C)C=C1 N
